Entries annotated with measured Uterotonic activity
Species on record: Rattus norvegicus
assayMethodText: In vitro uterotonic activity was determined
Format: functional
Lab note: write values as number then unit, every time.

>>> experimentalresult("CC[C@H](C)[C@@H]1NC(=O)[C@H](Cc2ccc(O)cc2)NC(=O)[C@@H](N)CSSC[C@@H](C(=O)N2CCC[C@H]2C(=O)N[C@@H](CC(C)C)C(=O)NCC(N)=O)NC(=O)[C@H](CC(N)=O)NC(=O)[C@H](CCC(N)=O)NC1=O")
"450 IU mg-1"
>>> experimentalresult("CC[C@@H](C)[C@H]1NC(=O)CC2(CCCCC2)SSC[C@H](N)C(=O)N[C@@H](Cc2ccc(O)cc2)C(=O)N[C@@H]([C@@H](C)CC)C(=O)N[C@@H](CCC(N)=O)C(=O)N[C@@H](CC(N)=O)C(=O)N[C@H](C(=O)N2CCC[C@H]2C(=O)N[C@@H](CC(C)C)C(=O)NCC(N)=O)CSSC[C@@H](C(=O)N2CCC[C@H]2C(=O)N[C@@H](CCCN=C(N)N)C(=O)NCC(N)=O)NC(=O)[C@H](CC(N)=O)NC(=O)[C@H]([C@@H](C)CC)NC(=O)[C@H](Cc2ccccc2)NC1=O")
"0.22 IU mg-1"
>>> experimentalresult("CC[C@H](C)[C@@H]1NC(=O)[C@H](Cc2ccc(O)cc2)NC(=O)[C@@H](N)CSSC[C@@H](C(=O)N2CCC[C@H]2C(=O)N[C@@H](CC(C)C)C(=O)NCC(N)=O)NC(=O)[C@H](CC(N)=O)NC(=O)[C@H](CCC(N)=O)NC(=O)[C@H]([C@@H](C)CC)NC(=O)[C@H](Cc2ccc(O)cc2)NC(=O)[C@@H](N)CSSC[C@@H](C(=O)N2CCC[C@H]2C(=O)N[C@@H](CC(C)C)C(=O)NCC(N)=O)NC(=O)[C@H](CC(N)=O)NC(=O)[C@H](CCC(N)=O)NC1=O")
"1.37 IU mg-1"

**Q:** Query (compound): CC[C@@H](C)[C@H]1NC(=O)CC2(CCCCC2)SSC[C@@H](C(=O)N2CCC[C@H]2C(=O)N[C@@H](CC(C)C)C(=O)NCC(N)=O)NC(=O)[C@H](CC(N)=O)NC(=O)[C@H](CCC(N)=O)NC(=O)[C@H]([C@@H](C)CC)NC(=O)[C@H](Cc2ccc(O)cc2)NC(=O)[C@@H](N)CSSC[C@@H](C(=O)N2CCC[C@H]2C(=O)N[C@@H](CCCN=C(N)N)C(=O)NCC(N)=O)NC(=O)[C@H](CC(N)=O)NC(=O)[C@H]([C@@H](C)CC)NC(=O)[C@H](Cc2ccccc2)NC1=O ; field requested: Uterotonic activity
**A:** 0.8 IU mg-1

---

Test system: Rattus norvegicus
assayMethodText: In vivo pressor response in rats
Assay type: functional
Entries annotated with measured Pressor response
Give the number; IU mg-1 is assumed, so skip it.

>>> experimentalresult("CC[C@H](C)[C@@H]1NC(=O)[C@H](Cc2ccc(O)cc2)NC(=O)[C@@H](N)CSSC[C@@H](C(=O)N2CCC[C@H]2C(=O)N[C@@H](CC(C)C)C(=O)NCC(N)=O)NC(=O)[C@H](CC(N)=O)NC(=O)[C@H](CCC(N)=O)NC1=O")
4.5
>>> experimentalresult("CC[C@@H](C)[C@H]1NC(=O)CC2(CCCCC2)SSC[C@H](N)C(=O)N[C@@H](Cc2ccc(O)cc2)C(=O)N[C@@H]([C@@H](C)CC)C(=O)N[C@@H](CCC(N)=O)C(=O)N[C@@H](CC(N)=O)C(=O)N[C@H](C(=O)N2CCC[C@H]2C(=O)N[C@@H](CC(C)C)C(=O)NCC(N)=O)CSSC[C@@H](C(=O)N2CCC[C@H]2C(=O)N[C@@H](CCCN=C(N)N)C(=O)NCC(N)=O)NC(=O)[C@H](CC(N)=O)NC(=O)[C@H]([C@@H](C)CC)NC(=O)[C@H](Cc2ccccc2)NC1=O")
0
>>> experimentalresult("CC[C@@H](C)[C@H]1NC(=O)CC2(CCCCC2)SSC[C@@H](C(=O)N2CCC[C@H]2C(=O)N[C@@H](CC(C)C)C(=O)NCC(N)=O)NC(=O)[C@H](CC(N)=O)NC(=O)[C@H](CCC(N)=O)NC(=O)[C@H]([C@@H](C)CC)NC(=O)[C@H](Cc2ccc(O)cc2)NC(=O)[C@@H](N)CSSC[C@@H](C(=O)N2CCC[C@H]2C(=O)N[C@@H](CCCN=C(N)N)C(=O)NCC(N)=O)NC(=O)[C@H](CC(N)=O)NC(=O)[C@H]([C@@H](C)CC)NC(=O)[C@H](Cc2ccccc2)NC1=O")
0

**Q:** Query (compound): CC[C@H](C)[C@@H]1NC(=O)[C@H](Cc2ccc(O)cc2)NC(=O)[C@@H](N)CSSC[C@@H](C(=O)N2CCC[C@H]2C(=O)N[C@@H](CC(C)C)C(=O)NCC(N)=O)NC(=O)[C@H](CC(N)=O)NC(=O)[C@H](CCC(N)=O)NC(=O)[C@H]([C@@H](C)CC)NC(=O)[C@H](Cc2ccc(O)cc2)NC(=O)[C@@H](N)CSSC[C@@H](C(=O)N2CCC[C@H]2C(=O)N[C@@H](CC(C)C)C(=O)NCC(N)=O)NC(=O)[C@H](CC(N)=O)NC(=O)[C@H](CCC(N)=O)NC1=O ; field requested: Pressor response
**A:** 0.5
